- assayedTarget: STING (Stimulator of Interferon Genes) (Homo sapiens, UniProt Q86WV6, G230A/H232R/R293Q/R71H)
- Construct: host or cells: THP-1-Lucia ISG cells (human monocytic line)
- Sequence (Q86WV6 whole entry R71H/G230A/H232R/R293Q): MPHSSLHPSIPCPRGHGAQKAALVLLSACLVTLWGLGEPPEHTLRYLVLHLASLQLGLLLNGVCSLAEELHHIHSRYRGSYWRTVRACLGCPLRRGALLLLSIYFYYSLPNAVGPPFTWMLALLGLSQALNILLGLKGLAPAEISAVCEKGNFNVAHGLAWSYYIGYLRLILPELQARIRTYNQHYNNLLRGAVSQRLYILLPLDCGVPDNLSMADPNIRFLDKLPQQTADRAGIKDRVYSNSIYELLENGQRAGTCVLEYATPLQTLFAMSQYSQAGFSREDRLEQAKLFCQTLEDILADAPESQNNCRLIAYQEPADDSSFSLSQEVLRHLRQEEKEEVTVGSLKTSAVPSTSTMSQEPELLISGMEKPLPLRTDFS
- methodDescription: ISG-LUC activation assay (ISRE-Luciferase assay in THP-1 Lucia ISG reporter cells)
- Assay type: cell-based
- conditionSet: THP-1 Lucia ISG cells, 24 hours, luciferase reporter; read-out: ISG-LUC activation assay (EC50)
# note: boundary value 400 nM maps to -1; EC50 below it maps to 1

Worked examples follow.
{"smilesRepr": "Cc1ccc(C(=O)O)c(NC(=O)c2ccc(-n3ccnc3)nn2)c1", "classification": -1}
{"smilesRepr": "COC(=O)c1ccc(F)cc1NC(=O)c1ccc(-n2ccnc2)nn1", "classification": -1}

Query string: Answer whether the compound "COC(=O)c1cc(C#N)c(F)cc1NC(=O)c1ccc(-n2ccnc2)nn1" has EC50 strictly less than 400 nM
Result string: 1

Query string: Answer whether the compound "COC(=O)c1ccc(C(F)(F)F)cc1NC(=O)c1ccc(-n2ccnc2)nn1" has EC50 strictly less than 400 nM
Result string: 1

Query string: Answer whether the compound "COC(=O)c1cc(F)c(OC)cc1NC(=O)c1ccc(-n2ccnc2)nn1" has EC50 strictly less than 400 nM
Result string: 1

Query string: Answer whether the compound "COC(=O)C1=C(NC(=O)c2ccc(-n3ccnc3)nn2)CC(C)(C)C1" has EC50 strictly less than 400 nM
Result string: -1

Query string: Answer whether the compound "COC(=O)C1=C(NC(=O)c2ccc(-n3ccnc3)nn2)CC(C)(C)OC1" has EC50 strictly less than 400 nM
Result string: -1

Query string: Answer whether the compound "COC(=O)c1cc(C)ccc1NC(=O)c1ccc(-n2ccnc2)nn1" has EC50 strictly less than 400 nM
Result string: -1

Query string: Answer whether the compound "O=C(Nc1ccccc1-c1noc(O)n1)c1ccc(-n2ccnc2)nn1" has EC50 strictly less than 400 nM
Result string: -1
